assay: Cyclic voltammetry in anhydrous DMF; assay type: physicochemical; settings: vs SCE, irreversible peak potential, glassy carbon, 0.10 M TBAP, 100 mV/s, 25 °C
PROPERTY MEASURED: Epc, Co(III/II) (V)
Give bare numbers, in V.

The cases that follow already have their Epc, Co(III/II) on record.
>>> print(df.to_string())
                                   compound  result_value
0  CC(=NN=C(N)[S-])C(C)=NN=C(N)[S-].N.N.O=[N+]([O-])[O-].[Co+3] [[Co(ATS)(NH3)2]^+]         −1.10
1  CC(=NN=C(N)[S-])C(C)=NN=C(N)[S-].NCc1ccccc1.NCc1ccccc1.O=[N+]([O-])[O-].[Co+3] [[Co(ATS)(BnA)2]^+]         −0.83

Data request: Need Epc, Co(III/II) of CC(=NN=C(N)[S-])C(C)=NN=C(N)[S-].O=[N+]([O-])[O-].[Co+3].c1c[nH]cn1.c1c[nH]cn1 [[Co(ATS)(Im)2]^+] , thanks.
Data returned: −0.86

###

assay: N-methylimidazole challenge; format: physicochemical; details: 1 mM complex, 5 mM N-methylimidazole, pH 7.4 PBS, 37 °C, 24 h
PROPERTY MEASURED: % Intact (%)
Numbers only, in %.

>>> print(df.to_string())
                                   molecule  result_value
0  CC(C=NN=C(N)[S-])=NN=C(N)[S-].N.N.O=[N+]([O-])[O-].[Co+3] [[Co(PTS)(NH3)2]^+]            56
1  CC(C=NN=C(N)[S-])=NN=C(N)[S-].NCc1ccccc1.NCc1ccccc1.O=[N+]([O-])[O-].[Co+3] [[Co(PTS)(BnA)2]^+]             1
2  CC(C=NN=C(N)[S-])=NN=C(N)[S-].O=[N+]([O-])[O-].[Co+3].c1c[nH]cn1.c1c[nH]cn1 [[Co(PTS)(Im)2]^+]             7
3  CC(=NN=C(N)[S-])C(C)=NN=C(N)[S-].N.N.O=[N+]([O-])[O-].[Co+3] [[Co(ATS)(NH3)2]^+]            38
4  NC([S-])=NN=CC=NN=C(N)[S-].O=[N+]([O-])[O-].[Co+3].c1c[nH]cn1.c1c[nH]cn1 [[Co(GTS)(Im)2]^+]             6

Parameters: items (list). Returns: % Intact for each item.
1. CC(=NN=C(N)[S-])C(C)=NN=C(N)[S-].NCc1ccccc1.NCc1ccccc1.O=[N+]([O-])[O-].[Co+3] [[Co(ATS)(BnA)2]^+]
2. CC(=NN=C(N)[S-])C(C)=NN=C(N)[S-].O=[N+]([O-])[O-].[Co+3].c1c[nH]cn1.c1c[nH]cn1 [[Co(ATS)(Im)2]^+]

Data returned:
1: 0; 2: 11

###

Give measured E1/2,Co(II/I) for each item. Keep answers brief.
assay: Cyclic voltammetry in anhydrous DMF; assay type: physicochemical; conditions: vs SCE, glassy carbon, 0.10 M TBAP, 100 mV/s, 25 °C
Give bare numbers, in V.

The cases that follow already have their E1/2,Co(II/I) on record.
>>> df
                                   compound  reading_unit  result_value
0  CC(=NN=C(N)[S-])C(C)=NN=C(N)[S-].O=[N+]([O-])[O-].[Co+3].c1c[nH]cn1.c1c[nH]cn1 [[Co(ATS)(Im)2]^+]             V         −1.19
1  CC(=NN=C(N)[S-])C(C)=NN=C(N)[S-].N.N.O=[N+]([O-])[O-].[Co+3] [[Co(ATS)(NH3)2]^+]             V         −1.18

Then there is this compound:
Data request: Need E1/2,Co(II/I) of CC(=NN=C(N)[S-])C(C)=NN=C(N)[S-].NCc1ccccc1.NCc1ccccc1.O=[N+]([O-])[O-].[Co+3] [[Co(ATS)(BnA)2]^+] , thanks.
Data returned: −1.18
